- Test system: IGR-37 (Melanoma)
- measurement.protocol: combination Emax (second highest fraction inhibited in the dose matrix, 72 h); higher = more inhibition; extreme values may be limits of the assay
parameter: combination Emax
Write the number on its own, no unit after it.

NC1(C(=O)N[C@@H](CCO)c2ccc(Cl)cc2)CCN(c2ncnc3[nH]ccc23)CC1 [Capivasertib] + CC(=O)c1c(C)c2cnc(Nc3ccc(N4CCNCC4)cn3)nc2n(C2CCCC2)c1=O [Palbociclib] (first compound max 10 µM, 7x7, partner max 10 µM) ... 0.396

We next turn to a different molecule, shown below.
Input: Requested read-out combination Emax, target or system IGR-37 (Melanoma), entry Cc1c2c(nn1C)CSCc1cc(n(C)n1)CSc1cc(c3ccccc3c1)OCCCc1c(C(=O)O)n(C)c3c-2c(Cl)ccc13 [AZD5991] + CC(=O)O[C@H]1C(=O)[C@@]2(C)[C@H]([C@H](OC(=O)c3ccccc3)[C@]3(O)C[C@H](OC(=O)[C@H](O)[C@@H](NC(=O)c4ccccc4)c4ccccc4)C(C)=C1C3(C)C)[C@]1(OC(C)=O)CO[C@@H]1C[C@@H]2O [Paclitaxel] (first compound max 1 µM, 7x7, partner max 3 µM)
Output: 0.885

###

- Tested on: CAL-29 (Bladder Carcinoma);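 note: after 72 h of two-drug dosing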
- measurement.protocol: Bliss excess, mean over the matrix (fraction); higher = more synergy
Reported Bliss excess is given for each of the following compounds.

Cc1c2c(nn1C)CSCc1cc(n(C)n1)CSc1cc(c3ccccc3c1)OCCCc1c(C(=O)O)n(C)c3c-2c(Cl)ccc13 [AZD5991] + CCN(CCO)CCCOc1ccc2c(Nc3cc(CC(=O)Nc4cccc(F)c4)[nH]n3)ncnc2c1 [AZD2811] (first compound max 1 µM, 7x7, partner max 1 µM) ... 0.072

Would you kindly look at the next entry?
Input: Missing value: Bliss excess, CAL-29 (Bladder Carcinoma), entry CN(CCO)CC[C@H](CSc1ccccc1)Nc1ccc(S(=O)(=O)NC(=O)c2ccc(N3CCC([C@@H](O)c4ccccc4-c4ccc(Cl)cc4)CC3)cc2)cc1S(=O)(=O)C(F)(F)F [AZD4320] + Cc1cc2ncnn2cc1Nc1ncc2c(n1)n(C1CCOCC1)c(=O)n2C [AZD7648] (first compound max 1 µM, 7x7, partner max 10 µM) . Fill in?
Output: -0.0074

###

- Test system: ARH-77 (Non-Cancerous)
- measurement.protocol: combination Emax (second highest fraction inhibited in the dose matrix, 72 h); higher = more inhibition; extreme values may be limits of the assay
Decide by combination Emax: equal to or exceeding 0.9 means MET, less means NOT MET.

COc1cccc(OCCCN)c1-c1cc(Nc2cnc(C#N)cn2)n[nH]1 [Prexasertib] + CCc1c2c(nc3ccc(O)cc13)-c1cc3c(c(=O)n1C2)COC(=O)[C@]3(O)CC [SN-38] (first compound max 1 µM, 7x7, partner max 0.3 µM) ... MET
COc1nnc2ccc(N3CCC(c4ccc(OCCN5CCN(C)C(=O)[C@H]5C)cc4)CC3)nn12 [AZD5153] + Cc1c2c(nn1C)CSCc1cc(n(C)n1)CSc1cc(c3ccccc3c1)OCCCc1c(C(=O)O)n(C)c3c-2c(Cl)ccc13 [AZD5991] (first compound max 1 µM, 7x7, partner max 1 µM) ... NOT MET
CC1(C)CCC(CN2CCN(c3ccc(C(=O)NS(=O)(=O)c4ccc(NCC5CCOCC5)c([N+](=O)[O-])c4)c(Oc4cnc5[nH]ccc5c4)c3)CC2)=C(c2ccc(Cl)cc2)C1 [Venetoclax] + C[C@@H]1COCCN1C2=NC(=NC(=C2)C3(CC3)[S@](=N)(=O)C)C4=C5C=CNC5=NC=C4 [AZD6738] (first compound max 1 µM, 7x7, partner max 10 µM) ... MET

Input: Answer whether combination Emax of NC1(C(=O)N[C@@H](CCO)c2ccc(Cl)cc2)CCN(c2ncnc3[nH]ccc23)CC1 [Capivasertib] + CC(=O)c1c(C)c2cnc(Nc3ccc(N4CCNCC4)cn3)nc2n(C2CCCC2)c1=O [Palbociclib] (first compound max 10 µM, 7x7, partner max 10 µM) is greater than or equal to 0.9.
Output: NOT MET

Input: Item COc1cccc(OCCCN)c1-c1cc(Nc2cnc(C#N)cn2)n[nH]1 [Prexasertib] + C[C@@H]1COCCN1C2=NC(=NC(=C2)C3(CC3)[S@](=N)(=O)C)C4=C5C=CNC5=NC=C4 [AZD6738] (first compound max 1 µM, 7x7, partner max 10 µM) with combination Emax of 0.9 or above?
Output: MET
